Test system: MDR1
Measurement Protocol: in vitro
Measurement Conditions: dog, MDCK-MDR1, pH 7.4, MDCK-MDR1: Papp B-A (10^−6, cm/s)
Assay Metric: Papp B→A at 120 min, 5 μM (×10⁻⁶ cm/s)
Just the number please, in ×10⁻⁶ cm/s, no unit attached.

Below are worked cases with known answers.
compound="CN(c1cnc(-c2cc(F)c(-n3ccnn3)cc2O)cn1)[C@@H]1CC2CC[C@H](N2)[C@@H]1F (single isomer, unassigned)" assay_metric="Papp B→A at 120 min, 5 μM" data_value=43.5
compound="COc1cc(-c2ccc(-c3cnc(N(C4CC4)[C@H]4C[C@@H]5CCC(N5)[C@H]4F)cn3)c(O)c2)ccn1 (single isomer, unassigned)" assay_metric="Papp B→A at 120 min, 5 μM" data_value=2.99
compound="COc1cc(-c2cc(O)c(-c3cnc(N(C)[C@@H]4CC5N[C@H](C4)CC5(F)F)cn3)cc2F)cnn1 (single isomer, unassigned)" assay_metric="Papp B→A at 120 min, 5 μM" data_value=55.4

Query :: Give the reported Papp B→A at 120 min, 5 μM for COc1cc(-c2cc(O)c(-c3cnc(N(C)[C@@H]4CC5CC(F)(F)[C@@H](C4)N5)cn3)cc2F)cnn1 (single isomer, unassigned) (system: MDR1).
Result :: 42.5

Query :: Give the reported Papp B→A at 120 min, 5 μM for COc1cc(-c2cc(O)c(-c3cnc(N(C4CC4)[C@@H]4CC5CC[C@H](N5)[C@@H]4F)cn3)cc2F)ccn1 (single isomer, unassigned) (system: MDR1).
Result :: 1.41

Query :: Give the reported Papp B→A at 120 min, 5 μM for CN(c1cnc(-c2cc3oc(C(=O)N4CCC4)cc3cc2O)cn1)[C@@H]1CC2CC[C@H](N2)[C@@H]1F (single isomer, unassigned) (system: MDR1).
Result :: 56.4

Query :: Give the reported Papp B→A at 120 min, 5 μM for Cn1ccc(-c2ccc(-c3cnc(N(C4CC4)[C@H]4C[C@@H]5CCC(N5)[C@H]4F)cn3)c(O)c2)cc1=O (single isomer, unassigned) (system: MDR1).
Result :: 46.1

Query :: Give the reported Papp B→A at 120 min, 5 μM for CNC(=O)/C=C/c1cc(O)c(-c2cnc(N(C3CC3)[C@H]3C[C@]4(C)CC[C@@](C)(N4)[C@H]3F)cn2)cc1F (single isomer, unassigned) (system: MDR1).
Result :: 52.7

* * *

Let's look at some compounds and their measured efflux ratio at 120 min, 5 μM.
Tested on: MDR1 (P-gp)
Measurement Protocol: MDCK-MDR1 permeability assay, blood-brain-barrier penetration potential
Measurement Conditions: dog, MDCK-MDR1, pH 7.4, MDCK-MDR1 Efflux Ratio
When you answer, write just the number.

Below are worked cases with known answers.
compound=CN(c1cnc(-c2ccc(-c3ccn(C)c(=O)c3)cc2O)cn1)[C@@H]1C[C@H]2CCC[C@H](N2)[C@@H]1F assay_metric="efflux ratio at 120 min, 5 μM" data_value=25
compound="CN(C)C(=O)c1cc(O)c(-c2cnc(N(C)[C@@H]3CC4CC[C@H](N4)[C@@H]3F)cn2)cc1F (single isomer, unassigned)" assay_metric="efflux ratio at 120 min, 5 μM" data_value=52

Query :: Suppose we examine the compound COc1cc(-c2ccc(-c3cnc(N(C4CC4)[C@H]4C[C@@H]5CCC(N5)[C@H]4F)cn3)c(O)c2)ncn1 (single isomer, unassigned) ; what efflux ratio at 120 min, 5 μM value has been reported?
Result :: 2
